# target-desc: T1, human galectin-10-His (recombinant human galectin-10 with TEV-cleavable N-terminal His-tag) (human)
# T1 construct: SEC-MALLS: dimer in solution; also called Gal10-His; humanGal10-His
# T1 chain: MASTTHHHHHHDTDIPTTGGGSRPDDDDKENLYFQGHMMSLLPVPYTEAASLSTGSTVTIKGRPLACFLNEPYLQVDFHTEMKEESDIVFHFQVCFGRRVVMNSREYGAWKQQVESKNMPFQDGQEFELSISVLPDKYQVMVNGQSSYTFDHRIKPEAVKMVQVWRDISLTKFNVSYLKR
# method-notes: BLI tandem on galectin-10-His; competitor: saturating 4E08 mIgG1 (10 ug/mL)
Please go through the items and note down their binding signal (nm).

Notebook: 1D11 mouse IgG1 (antibody, V domains shown, VH on mouse IgG1 heavy chain constant domains (CH1-CH2-CH3), VL on mouse lambda light chain constant domain; also called 1D011; 1D11 mIgG1) VH: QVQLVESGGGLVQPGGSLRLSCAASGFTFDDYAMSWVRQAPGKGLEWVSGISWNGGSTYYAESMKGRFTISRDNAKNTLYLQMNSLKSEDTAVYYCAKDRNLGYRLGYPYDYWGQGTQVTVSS VL: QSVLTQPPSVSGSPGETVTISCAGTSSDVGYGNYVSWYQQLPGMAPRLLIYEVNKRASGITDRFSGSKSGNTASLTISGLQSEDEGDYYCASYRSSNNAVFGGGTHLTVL , binding signal (nm) read as 0 nm

Notebook: 2C07 mouse IgG1 (antibody, V domains shown, VH on mouse IgG1 heavy chain constant domains (CH1-CH2-CH3), VL on mouse lambda light chain constant domain; also called 2C07 mIgG1) VH: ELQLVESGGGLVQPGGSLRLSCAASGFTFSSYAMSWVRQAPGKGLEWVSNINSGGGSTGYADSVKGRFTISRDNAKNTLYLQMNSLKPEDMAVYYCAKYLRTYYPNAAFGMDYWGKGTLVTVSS VL: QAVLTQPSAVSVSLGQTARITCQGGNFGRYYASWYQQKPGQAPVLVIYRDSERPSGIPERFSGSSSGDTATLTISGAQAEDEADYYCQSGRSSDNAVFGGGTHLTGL , binding signal (nm) read as -0.05 nm

Notebook: 6E10 mouse IgG1 (antibody, V domains shown, also called 6E010; 6E10 mIgG1) VH: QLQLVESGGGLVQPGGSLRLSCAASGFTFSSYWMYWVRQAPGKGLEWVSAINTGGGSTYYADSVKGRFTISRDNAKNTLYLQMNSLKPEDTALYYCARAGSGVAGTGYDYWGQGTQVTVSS VL: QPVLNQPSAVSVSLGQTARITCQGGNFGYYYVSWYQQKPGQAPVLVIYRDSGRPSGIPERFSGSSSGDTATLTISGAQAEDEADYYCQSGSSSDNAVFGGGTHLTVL , binding signal (nm) read as 0.1 nm

Notebook: 4E08 mouse IgG1 (antibody, V domains shown, VH on mouse IgG1 heavy chain constant domains (CH1-CH2-CH3), VL on mouse lambda light chain constant domain; also called 4E8; 4E08 mIgG1) VH: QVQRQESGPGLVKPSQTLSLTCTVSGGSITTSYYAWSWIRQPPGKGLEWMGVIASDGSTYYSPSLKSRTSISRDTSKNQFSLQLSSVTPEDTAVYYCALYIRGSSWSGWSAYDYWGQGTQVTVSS VL: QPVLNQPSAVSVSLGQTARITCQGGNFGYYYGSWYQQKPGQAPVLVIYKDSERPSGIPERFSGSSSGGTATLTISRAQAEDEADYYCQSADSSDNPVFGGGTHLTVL , binding signal (nm) read as -0.08 nm
